Tested on: MDCK
Assay: Cytotoxicity against dog MDCK cells assessed as alteration of cell morphology up to 100 uM by microscopic analysis
Assay type: cell-based, Canis lupus familiaris
Observed property: Activity

[[record]]
molecule = "CCOP(=O)(OCC)[C@H]1C[C@H](C(=O)Nc2ccc([N+](=O)[O-])cc2)ON1C (mixture of isomers)"
result = "Non-toxic"

[[record]]
molecule = "CCOP(=O)(OCC)[C@H]1C[C@H](C(=O)Nc2cccc(Cl)c2)ON1C (mixture of isomers)"
result = "Non-toxic"

[[record]]
molecule = "CCOP(=O)(OCC)[C@@H]1C[C@@H](C(=O)Nc2ccccc2Cl)ON1C (racemic)"
result = "Non-toxic"

[[record]]
molecule = "CCOP(=O)(OCC)[C@H]1C[C@H](C(=O)Nc2ccc(Br)cc2)ON1C (mixture of isomers)"
result = "Non-toxic"


###

System: Influenza A virus
Assay: Antiviral activity against Influenza A virus H1N1 infected in dog MDCK cells assessed as reduction of virus-induced cytopathogenicity at 250 uM
Assay type: functional, organism-based
Activity calls are given as the source filed them. How the calls were made is not given here.
Observed property: inhibition

Worked examples follow.
[[record]]
molecule = "CCOP(=O)(OCC)[C@H]1C[C@H](C(=O)Nc2cc(OC)c(OC)c(OC)c2)ON1C (mixture of isomers)"
result = "inactive"

[[record]]
molecule = "CCOP(=O)(OCC)[C@@H]1C[C@H](C(=O)Nc2cc(OC)c(OC)cc2C(C)=O)ON1C (mixture of isomers)"
result = "inactive"

[[record]]
molecule = "CCOP(=O)(OCC)[C@H]1C[C@H](C(=O)Nc2ccc(F)cc2)ON1C (racemic)"
result = "inactive"

[[record]]
molecule = "CCOP(=O)(OCC)[C@H]1C[C@H](C(=O)Nc2ccc(Cl)cc2)ON1C (relative stereo)"
result = "inactive"

[[record]]
molecule = "CCOP(=O)(OCC)[C@H]1C[C@H](C(=O)Nc2ccc(C#N)cc2)ON1C (racemic)"
result = "inactive"

[[record]]
molecule = "CCOP(=O)(OCC)[C@@H]1C[C@H](C(=O)Nc2ccc(C#N)cc2)ON1C (mixture of isomers)"
result = "inactive"

[[record]]
molecule = "CCOP(=O)(OCC)[C@@H]1C[C@H](C(=O)Nc2cccc([N+](=O)[O-])c2)ON1C (mixture of isomers)"
result = "inactive"


Let us move to another entry and its inhibition.
Looking for the measured inhibition of CCOP(=O)(OCC)[C@H]1C[C@H](C(=O)Nc2cc(OC)c(OC)cc2C(C)=O)ON1C (mixture of isomers) , can you help?
inactive

###

Tested on: K562
Assay: Cytotoxicity against human K562 cells
Format: functional, cell-based
Observed property: IC50
Please report the result as a number followed by the unit.

Looking for the measured IC50 of CCOP(=O)(OCC)C1CC(c2ccc3ccccc3c2)ON1C (stereo unspecified) , can you help?
90 µM

###

Tested on: Influenza A virus
Test: Antiviral activity against Influenza A virus H3N2 infected in dog MDCK cells assessed as reduction of virus-induced cytopathogenicity at 250 uM
Type: functional, organism-based
Calls of active or inactive are those of the source. How the calls were made is not given here.
Observed property: inhibition

[[record]]
compound = "CCOc1ccc(NC(=O)[C@H]2C[C@H](P(=O)(OCC)OCC)N(C)O2)cc1 (mixture of isomers)"
observed_property = "inhibition"
result = "inactive"

[[record]]
compound = "CCOP(=O)(OCC)[C@@H]1C[C@H](C(=O)Nc2cccc(F)c2)ON1C (mixture of isomers)"
observed_property = "inhibition"
result = "inactive"

[[record]]
compound = "CCOP(=O)(OCC)[C@H]1C[C@H](C(=O)Nc2ccc(F)cc2)ON1C (racemic)"
observed_property = "inhibition"
result = "inactive"

[[record]]
compound = "CCOP(=O)(OCC)[C@H]1C[C@H](C(=O)Nc2ccc(C(C)=O)cc2)ON1C (mixture of isomers)"
observed_property = "inhibition"
result = "inactive"


###

Tested on: HeLa
Test: Cytotoxicity against human HeLa cells assessed as alteration of cell morphology up to 100 uM by microscopic analysis
Type: cell-based
Observed property: Activity

[[record]]
compound = "CCOP(=O)(OCC)[C@H]1C[C@H](C(=O)Nc2ccc(C)cc2)ON1C (relative stereo)"
target_of_assay = "HeLa"
observed_property = "Activity"
result = "Non-toxic"

[[record]]
compound = "CCOP(=O)(OCC)[C@@H]1C[C@H](C(=O)Nc2ccccc2Br)ON1C (mixture of isomers)"
target_of_assay = "HeLa"
observed_property = "Activity"
result = "Non-toxic"

[[record]]
compound = "CCOP(=O)(OCC)[C@H]1C[C@H](C(=O)Nc2cccc(F)c2)ON1C (mixture of isomers)"
target_of_assay = "HeLa"
observed_property = "Activity"
result = "Non-toxic"

[[record]]
compound = "CCOP(=O)(OCC)[C@H]1C[C@H](C(=O)Nc2cccc(Br)c2)ON1C (racemic)"
target_of_assay = "HeLa"
observed_property = "Activity"
result = "Non-toxic"

[[record]]
compound = "CCOP(=O)(OCC)[C@H]1C[C@H](C(=O)Nc2ccc(Cl)cc2)ON1C (relative stereo)"
target_of_assay = "HeLa"
observed_property = "Activity"
result = "Non-toxic"

[[record]]
compound = "CCOP(=O)(OCC)[C@@H]1C[C@H](C(=O)Nc2cc(OC)c(OC)c(OC)c2)ON1C (racemic)"
target_of_assay = "HeLa"
observed_property = "Activity"
result = "Non-toxic"


Looking for the measured Activity of CCOP(=O)(OCC)[C@H]1C[C@H](C(=O)Nc2cccc(OC)c2)ON1C (racemic) , can you help?
Non-toxic

Item: CCOP(=O)(OCC)[C@H]1C[C@H](C(=O)Nc2cccc(C)c2)ON1C (racemic)
Non-toxic

Item: CCOP(=O)(OCC)[C@@H]1C[C@H](C(=O)Nc2ccc(F)cc2)ON1C (mixture of isomers)
Non-toxic

The reported measurements were obtained from ChEMBL document CHEMBL2331506.
